Test system: SNB-19 CNS
Assay: NCI-60 one-dose screen, 48 h (100 = growth as untreated, 0 = no growth, -100 = all killed)
Details: 10 µM unless noted
About 83,000 compounds went through this panel and 20% of them were active in at least one assay; those are over-represented in the sample as a whole.
Value Type: growth (%)
Your answer should be a plain number; it is taken to be in %.

Which measured growth value corresponds to COc1cc(NC(=O)COc2ccccc2)c(C(N)=O)cc1OC ? 56

Which measured growth value corresponds to COc1cc(/C=N/NC(=O)c2cnn3c2NC(c2ccccc2)C3)cc(OC)c1OC (configuration not stated) ? 66.2

Which measured growth value corresponds to COCCOC1=C(Cl)C(=O)c2ccccc2C1=O ? 88.4

Which measured growth value corresponds to CCOC(=O)C(CC(c1ccccc1)N1CCCCC1)[N+](=O)[O-] (configuration not stated) ? 89.5

Which measured growth value corresponds to c1ccc(-c2n(Cc3ccc4ccccc4n3)c3ccccc3[n+]2Cc2ccc3ccccc3n2)cc1 ? 10.6

Which measured growth value corresponds to ONc1nc(NO)c2[nH]cnc2n1 ? 112

Which measured growth value corresponds to O=C(N/N=C/c1ccc(F)cc1)c1[nH]c2ccc(I)cc2c1-c1ccccc1 ? 12

====

Test system: HCT-116 colon
Experiment: NCI-60 one-dose screen, 48 h
Details: 10 µM unless noted
Method: Growth inhibition of the HCT-116 human tumor cell line is measured as a screen for anti-cancer activity. Cells are grown in 96 well plates and exposed to the test compound for 48 hours. Compounds are tested at a single concentration, which is 10^-5 M for most compounds. The reported endpoint is percent growth (GI% or GIPRCNT), where numbers from 0 - 100% represent growth inhibition, and numbers from -100% - 0 represent cell death. For example, a value of 40 represents 60% growth inhibition. […]
This is part of a sample that, as a whole, favours compounds with a hit. Of some 83,000 tested, about 20% had one in any assay. The source made the active and inactive calls. How the source made its calls: active means growth percent below 10; inactive means the rest.
Your response should consist of one outcome taken from 1 for active, 0 for inactive

Kindly provide the recorded test outcome for the following compound: CC1=C(C/C=C(\C)CCC[C@H](C)CCC[C@H](C)CCCC(C)C)C(=O)c2ccccc2C1=O 0

Kindly provide the recorded test outcome for the following compound: C=C(C)CCCC(C)CC#N (stereo unspecified) 0

Kindly provide the recorded test outcome for the following compound: c1ccc2cc(Cn3c(-c4ccc5ccccc5c4)[n+](Cc4ccc5ccccc5c4)c4ccccc43)ccc2c1 1

Kindly provide the recorded test outcome for the following compound: Cc1ccc(N(CSc2ccc(Cl)cc2)CSc2ccc(Cl)cc2)cc1 0

Kindly provide the recorded test outcome for the following compound: CCCC1=NNC(=O)C1 0

Kindly provide the recorded test outcome for the following compound: O=C(Nc1ccccc1O)c1ccc(NS(=O)(=O)c2cccc3cccnc23)cc1 0

Kindly provide the recorded test outcome for the following compound: CCCCCn1c(=N)n(CC(O)COc2cccc(C)c2)c2ccccc21 (stereo unspecified) 0

Kindly provide the recorded test outcome for the following compound: CCCCc1ccc(C(O)(CCN2CC3CCC(CC3)C2)c2ccccc2)cc1 (stereo unspecified) 0

Kindly provide the recorded test outcome for the following compound: Nc1cccc2c(=S)c3ccccc3[nH]c12 0

Kindly provide the recorded test outcome for the following compound: CC1SC(c2cccc(Oc3ccccc3)c2)N(CCc2cccs2)C1=O (stereo unspecified) 1

Kindly provide the recorded test outcome for the following compound: NC(=O)c1cccc(-n2ccc3cc(NC(=O)Nc4ccc(Cl)c(Cl)c4)ccc32)n1 0

Kindly provide the recorded test outcome for the following compound: CCN(C(=O)c1ccc2c3c(cccc13)C=C2)c1ccccc1 0

Kindly provide the recorded test outcome for the following compound: COc1ccc(-c2nc(Nc3ccc(F)cc3)nc(Nc3ccc4c(c3)nc(C)n4Cc3ccccc3)n2)cc1 0

Kindly provide the recorded test outcome for the following compound: O=C1NC(=O)C(CSc2ccccc2)(c2ccccc2)N1 (stereo unspecified) 0

Kindly provide the recorded test outcome for the following compound: O=C1C(N2CCOCC2)=Cc2cccc3cccc1c23 0

Kindly provide the recorded test outcome for the following compound: COc1ccc(Sc2ccc3[nH]c(=O)nc(N)c3c2)cc1 0

Kindly provide the recorded test outcome for the following compound: COc1ccc(Nc2[nH]n(C3=Nc4ccccc4Sc4ccccc43)c(=O)c2C#N)cc1 0

Kindly provide the recorded test outcome for the following compound: O=C1CC(c2ccsc2)c2snc(-c3ccc(Cl)cc3)c2N1 (stereo unspecified) 0

Kindly provide the recorded test outcome for the following compound: C=C1CC[C@@H]2[C@@](C)(CCC[C@]2(C)C(=O)O)[C@@H]1CC[C@H](CO)CCO 0

Kindly provide the recorded test outcome for the following compound: CCCN1CCN(c2ccc3nc(-c4ccc5nc(-c6ccc(C(F)(F)F)cc6)[nH]c5c4)[nH]c3c2)CC1 1

Kindly provide the recorded test outcome for the following compound: CC1SC(c2ccc(Cl)cc2)N(CCc2cccs2)C1=O (stereo unspecified) 1

Kindly provide the recorded test outcome for the following compound: C[C@]1(CO)C[C@@H](O)C[C@]2(C)[C@@H]1CC[C@@]13C[C@@H]4[C@@H](C[C@H]12)[C@]4(C)C3 0

Kindly provide the recorded test outcome for the following compound: O=C(c1cnn2c1NC(c1ccc(F)cc1)C2)N1CCCCC1 (stereo unspecified) 0

Kindly provide the recorded test outcome for the following compound: O=C(COc1ccc(/C=C2\CSc3ccccc3C2=O)cc1)c1ccc(Cl)cc1 0

Kindly provide the recorded test outcome for the following compound: COc1cc(/C=C2\C(=O)Nc3ccccc32)cc(OC)c1O 0

Kindly provide the recorded test outcome for the following compound: COc1ccc(/C=N/OCC(O)CNCc2ccccc2)cc1OC1CCCC1 (stereo unspecified) 0

Kindly provide the recorded test outcome for the following compound: CCCCCCCC/C=C\CCCCCCCCOc1cccc(CC(=O)NCC[N+]2(C)CCOCC2)c1 0

Kindly provide the recorded test outcome for the following compound: COc1ccc(OC)c(/C=C2\Oc3cc(O)ccc3C2=O)c1 0

Kindly provide the recorded test outcome for the following compound: Cc1ccccc1-n1nnc(C(=O)Nc2nc(-c3ccccc3)c(-c3ccccc3)s2)c1C 0

Kindly provide the recorded test outcome for the following compound: CSC1=CC(=O)c2ccccc2C1=O 1

Kindly provide the recorded test outcome for the following compound: FCOC(C(F)(F)F)C(F)(F)F 0

Kindly provide the recorded test outcome for the following compound: COc1ccc(S(=O)(=O)c2ccc(C(N)=O)cc2)cc1NC(=O)c1[nH]c(C)c2c1CCCCC2=O 0

Kindly provide the recorded test outcome for the following compound: COc1ccc2c(c1)c(=O)oc1c(C)c(OCC(C)=O)ccc12 0

Kindly provide the recorded test outcome for the following compound: CCC(=O)Nc1nnc(Cc2ccc(OC)c(OC)c2)s1 1

Kindly provide the recorded test outcome for the following compound: O=C(C[Si](CC(=O)c1cccc(C(F)(F)F)c1)CC(=O)c1cccc(C(F)(F)F)c1)c1cccc(C(F)(F)F)c1 0

Kindly provide the recorded test outcome for the following compound: Cc1nc(-c2ccccc2)cc2c(O)c(C(=O)N/N=C/Cc3ccccc3)[nH]c(=O)c12 0

====

Tested on: NCI-H23 lung
Assay: NCI-60 one-dose screen, 48 h (100 = growth as untreated, 0 = no growth, -100 = all killed)
Settings: 10 µM unless noted
The panel holds about 83,000 compounds, 20% with a hit somewhere; the sample as a whole holds those more often.
Value Type: growth (%)
Your answer should be a plain number; it is taken to be in %.

Which measured growth value corresponds to Nc1c(Br)cc(Br)cc1-c1n[nH]c(=O)[nH]c1=O ? 91.3

Which measured growth value corresponds to COc1ccc(OC2=C(C#N)C(=N)N3c4ccccc4Sc4ccccc4C3N2)cc1 (stereo unspecified) ? 87.9

Which measured growth value corresponds to O=C(CCc1nnc2sc(/C=C\c3ccccc3)nn12)c1nc2ccccc2[nH]1 ? 73.4

Which measured growth value corresponds to C[C@]1(CO)C[C@@H](O)C[C@]2(C)[C@@H]1CC[C@@]13C[C@@H]4[C@@H](C[C@H]12)[C@]4(C)C3 ? 108

Which measured growth value corresponds to CN(C)c1ccc(/C=C(\C#N)c2cc3ccccc3n2C)cc1 ? 34.6

Which measured growth value corresponds to O=[N+]([O-])c1ccc2nc(N/N=C/c3ccc(O)cc3)sc2c1 ? 73.3

Which measured growth value corresponds to COC(=O)[C@H]1CCCN1C(=O)[C@H]1CCCN1C(=O)[C@@H](Cc1c[nH]c2ccccc12)NC(=S)Nc1cc(C(F)(F)F)cc(C(F)(F)F)c1 ? 69.2

Which measured growth value corresponds to CC(C)(C)[Si](C)(C)OC1[C@@H](O[Si](C)(C)C(C)(C)C)[C@@H](CNC(=O)NC(=O)C(F)(F)F)O[C@H]1n1cnc2c(NC(=O)Nc3ccccc3)ncnc21 (stereo partly specified) ? 86.4

Which measured growth value corresponds to N#CC1=C(N)Oc2cc(N)ccc2C1c1ccc(F)cc1 (stereo unspecified) ? 81.6

Which measured growth value corresponds to CCOC(=O)c1c(-c2cc(OC)c(OC)c(OC)c2)csc1N ? 92.9

Which measured growth value corresponds to COc1cc(C(=O)N(C(C)C)C2CCCCC2)cc(OC)c1OC ? 101

Source: PubChem BioAssay (NCI)
